Assay: Estimation of maximum human plasma concentration
Details: 60 mg PO daily (~1 mg/kg), scaled from rat, read-out: predicted human total Cmax (predicted plasma concentration)
Experimental: An estimation of the maximum plasma concentration of salidroside in humans was made from the pharmacokinetics in rats after oral dosing and the recommended human daily dose of salidroside of 60 mg (two 30 mg capsules). Male Sprague–Dawley rats were dosed either with IV or orally at 12 mg/kg (N = 6/group). Salidroside was moderately cleared (21 mL/min/kg) and well absorbed orally.
Recorded endpoint: Cmax

Ask: Provide Cmax value for the following molecule: OC[C@H]1O[C@@H](OCCc2ccc(O)cc2)[C@H](O)[C@@H](O)[C@@H]1O [Salidroside]
Reply: < 2000 nM

* * *

System: CYP1A2
Assay: in vitro
Conditions: human, Mean Fold Induction
Recorded endpoint: fold induction at 48 h, 3 µM
Please reply with the value in numeric form only.

Ask: Provide fold induction at 48 h, 3 µM value for the following compound: OC[C@H]1O[C@@H](OCCc2ccc(O)cc2)[C@H](O)[C@@H](O)[C@@H]1O [Salidroside]
Reply: 0.9

* * *

Biological target: CYP1A2 (Homo sapiens, UniProt P05177)
Construct: Mixed human liver microsomes were purchased from BioreclamationIVT; tissue BioreclamationIVT; host or cells: mixed-donor pool of human liver microsomes (Lot ZZQ)
Sequence (P05177 1-516): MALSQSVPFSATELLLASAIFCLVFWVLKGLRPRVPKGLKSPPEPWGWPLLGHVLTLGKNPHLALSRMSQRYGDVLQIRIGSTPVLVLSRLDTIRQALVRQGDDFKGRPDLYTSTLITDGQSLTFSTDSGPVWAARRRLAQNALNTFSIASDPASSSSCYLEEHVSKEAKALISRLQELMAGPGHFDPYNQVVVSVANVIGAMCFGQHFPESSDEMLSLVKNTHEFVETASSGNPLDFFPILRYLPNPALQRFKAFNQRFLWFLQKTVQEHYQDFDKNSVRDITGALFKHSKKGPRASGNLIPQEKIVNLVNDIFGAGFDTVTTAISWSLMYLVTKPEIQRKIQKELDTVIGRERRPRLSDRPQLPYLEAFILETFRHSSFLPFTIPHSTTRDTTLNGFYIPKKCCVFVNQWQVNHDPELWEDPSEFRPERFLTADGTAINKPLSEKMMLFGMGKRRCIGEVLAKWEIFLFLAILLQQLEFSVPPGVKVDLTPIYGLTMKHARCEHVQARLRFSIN
Test: CYP direct inhibition in human liver microsomes
Assay type: in vitro ADME
Settings: probe phenacetin, mean of N = 2
pIC50: −log10 of the molar value.
Recorded endpoint: pIC50

Ask: Provide pIC50 value for the following molecule: OC[C@H]1O[C@@H](OCCc2ccc(O)cc2)[C@H](O)[C@@H](O)[C@@H]1O [Salidroside]
Reply: < 4.30

* * *

System: CYP2B6
Assay: in vitro
Conditions: human
Recorded endpoint: fold induction at 48 h, 0.1 µM
Please reply with the value in numeric form only.

Ask: Provide fold induction at 48 h, 0.1 µM value for the following compound: OC[C@H]1O[C@@H](OCCc2ccc(O)cc2)[C@H](O)[C@@H](O)[C@@H]1O [Salidroside]
Reply: 0.87

* * *

Molecular target: OATP1B1 (Homo sapiens)
Sequence (Q9Y6L6 whole entry): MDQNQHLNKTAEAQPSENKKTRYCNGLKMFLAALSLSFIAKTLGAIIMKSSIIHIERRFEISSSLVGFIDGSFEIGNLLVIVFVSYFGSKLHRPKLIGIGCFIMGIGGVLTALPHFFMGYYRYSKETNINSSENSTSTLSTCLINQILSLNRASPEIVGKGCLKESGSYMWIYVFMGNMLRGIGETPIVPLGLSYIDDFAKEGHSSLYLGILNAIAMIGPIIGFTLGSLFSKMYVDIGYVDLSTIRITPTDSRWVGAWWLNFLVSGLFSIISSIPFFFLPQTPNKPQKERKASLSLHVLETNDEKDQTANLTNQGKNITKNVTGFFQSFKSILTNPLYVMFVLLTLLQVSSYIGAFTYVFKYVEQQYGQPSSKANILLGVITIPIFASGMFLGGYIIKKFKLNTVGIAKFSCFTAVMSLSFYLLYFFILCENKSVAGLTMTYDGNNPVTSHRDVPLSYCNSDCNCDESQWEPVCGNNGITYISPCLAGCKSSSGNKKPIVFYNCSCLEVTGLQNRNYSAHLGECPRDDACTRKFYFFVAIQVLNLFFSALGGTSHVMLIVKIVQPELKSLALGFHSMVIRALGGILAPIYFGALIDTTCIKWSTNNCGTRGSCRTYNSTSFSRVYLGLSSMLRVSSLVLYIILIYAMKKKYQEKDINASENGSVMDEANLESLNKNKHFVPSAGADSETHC
Assay: Uptake transport inhibition in HEK293-OATP1B1 cells
Recorded endpoint: IC50

Ask: Provide IC50 value for the following compound: OC[C@H]1O[C@@H](OCCc2ccc(O)cc2)[C@H](O)[C@@H](O)[C@@H]1O [Salidroside]
Reply: > 100 µM

* * *

Tested on: CYP2B6
Experiment: in vitro
Conditions: human, Mean Fold Induction
Recorded endpoint: fold induction at 48 h, 10 µM

Ask: // fetch fold induction at 48 h, 10 µM for OC[C@H]1O[C@@H](OCCc2ccc(O)cc2)[C@H](O)[C@@H](O)[C@@H]1O [Salidroside] ; system: CYP2B6
Reply: 0.8

* * *

Assay: in vitro
Conditions: human, plasma, pH 7.4
Recorded endpoint: fraction unbound at 5 h, 5 µM
Please reply with the value in numeric form only.

Ask: Provide fraction unbound at 5 h, 5 µM value for the following compound: OC[C@H]1O[C@@H](OCCc2ccc(O)cc2)[C@H](O)[C@@H](O)[C@@H]1O [Salidroside]
Reply: 0.985

* * *

Target: CYP1A2 (Homo sapiens, UniProt P05177)
Construct: Mixed human liver microsomes were purchased from BioreclamationIVT; tissue BioreclamationIVT; host or cells: mixed-donor pool of human liver microsomes (Lot ZZQ)
Test: Time-dependent inhibition (IC50 shift) in human liver microsomes
Format: in vitro ADME
Conditions: read-out: IC50 after 30 min Preincubation with NADPH, probe phenacetin, positive control not given, likely furafylline
pIC50: −log10 of the molar value.
Recorded endpoint: pIC50

Ask: Provide pIC50 value for the following compound: OC[C@H]1O[C@@H](OCCc2ccc(O)cc2)[C@H](O)[C@@H](O)[C@@H]1O [Salidroside]
Reply: < 4.30

* * *

Test system: CYP3A4
Assay: in vitro
Details: human, Mean Fold Induction
Recorded endpoint: fold induction at 48 h, 1 µM
Please reply with the value in numeric form only.

Ask: Provide fold induction at 48 h, 1 µM value for the following compound: OC[C@H]1O[C@@H](OCCc2ccc(O)cc2)[C@H](O)[C@@H](O)[C@@H]1O [Salidroside]
Reply: 0.7

* * *

Tested on: CYP2B6
Assay: in vitro
Conditions: human, Mean Fold Induction, CYP2B6 mRNA; Lot# RFM; 1000 µM; 48 h
Description: The sandwich medium was removed, and the hepatocytes were treated with incubation solutions containing salidroside (1, 5, 10, and 30 µM), vehicle (0.1% DMSO), or positive inducers in triplicate for 24 h after the cultures were established. […] Quantification of the selective genes by real-time quantitative polymerase chain reaction (qPCR) was performed with TaqMan universal PCR Master Mix on the Bio-rad CFX384 TouchTM Real-Time PCR System. […]
Recorded endpoint: fold induction at 48 h, 1000 µM
Please reply with the value in numeric form only.

Ask: Provide fold induction at 48 h, 1000 µM value for the following compound: CCC1(c2ccccc2)C(=O)NC(=O)NC1=O [PB, phenobarbital, reference compound]
Reply: 8.81

* * *

Test system: CYP2B6
Test: in vitro
Settings: human, Mean Fold Induction
Recorded endpoint: fold induction at 48 h, 1 µM
Please reply with the value in numeric form only.

Ask: Provide fold induction at 48 h, 1 µM value for the following compound: OC[C@H]1O[C@@H](OCCc2ccc(O)cc2)[C@H](O)[C@@H](O)[C@@H]1O [Salidroside]
Reply: 0.9

* * *

Target: CYP2D6 (Homo sapiens, UniProt P10635)
Sequence (P10635 whole entry): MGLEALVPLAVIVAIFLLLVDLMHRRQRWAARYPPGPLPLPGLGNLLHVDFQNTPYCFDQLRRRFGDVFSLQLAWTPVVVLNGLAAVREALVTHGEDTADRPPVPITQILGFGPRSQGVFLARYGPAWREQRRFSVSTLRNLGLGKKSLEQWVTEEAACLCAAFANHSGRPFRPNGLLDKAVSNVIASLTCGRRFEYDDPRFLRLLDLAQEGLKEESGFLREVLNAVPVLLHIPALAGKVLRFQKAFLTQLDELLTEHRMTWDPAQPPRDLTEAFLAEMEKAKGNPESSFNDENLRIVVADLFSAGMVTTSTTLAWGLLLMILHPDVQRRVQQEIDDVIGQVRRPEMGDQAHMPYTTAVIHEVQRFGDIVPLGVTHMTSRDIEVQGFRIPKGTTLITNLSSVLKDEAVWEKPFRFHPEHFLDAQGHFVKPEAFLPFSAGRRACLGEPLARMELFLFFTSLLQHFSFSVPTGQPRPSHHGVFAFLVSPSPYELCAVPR
Experiment: Time-dependent inhibition (IC50 shift) in human liver microsomes
Recorded endpoint: IC50

Ask: Provide IC50 value for the following compound: OC[C@H]1O[C@@H](OCCc2ccc(O)cc2)[C@H](O)[C@@H](O)[C@@H]1O [Salidroside]
Reply: > 50 µM

* * *

Biological target: OATP1B3 (Homo sapiens, UniProt Q9NPD5)
Sequence (Q9NPD5 1-702): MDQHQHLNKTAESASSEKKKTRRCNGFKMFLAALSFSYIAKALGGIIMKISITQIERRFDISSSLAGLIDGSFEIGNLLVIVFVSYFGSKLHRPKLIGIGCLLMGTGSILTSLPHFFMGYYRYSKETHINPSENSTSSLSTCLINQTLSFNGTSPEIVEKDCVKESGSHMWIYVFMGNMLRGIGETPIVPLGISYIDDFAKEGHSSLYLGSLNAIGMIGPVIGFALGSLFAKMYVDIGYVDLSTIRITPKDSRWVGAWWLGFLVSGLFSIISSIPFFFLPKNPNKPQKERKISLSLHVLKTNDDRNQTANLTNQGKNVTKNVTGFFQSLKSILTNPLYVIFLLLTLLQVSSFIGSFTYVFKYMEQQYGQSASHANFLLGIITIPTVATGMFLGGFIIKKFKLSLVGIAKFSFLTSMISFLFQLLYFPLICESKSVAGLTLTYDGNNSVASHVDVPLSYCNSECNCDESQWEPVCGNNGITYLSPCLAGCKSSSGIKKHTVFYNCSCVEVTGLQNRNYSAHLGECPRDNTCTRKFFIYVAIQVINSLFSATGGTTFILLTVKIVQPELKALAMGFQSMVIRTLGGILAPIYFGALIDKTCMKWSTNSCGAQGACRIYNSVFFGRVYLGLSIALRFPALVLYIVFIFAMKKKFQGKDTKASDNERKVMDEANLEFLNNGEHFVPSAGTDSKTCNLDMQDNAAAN
Test: Uptake transport inhibition in HEK293-OATP1B3 cells
Recorded endpoint: IC50

Ask: // fetch IC50 for OC[C@H]1O[C@@H](OCCc2ccc(O)cc2)[C@H](O)[C@@H](O)[C@@H]1O [Salidroside] ; system: OATP1B3 (Homo sapiens, UniProt Q9NPD5)
Reply: > 100 µM

* * *

Molecular target: CYP2C8 (Homo sapiens)
Sequence (P10632 1-490): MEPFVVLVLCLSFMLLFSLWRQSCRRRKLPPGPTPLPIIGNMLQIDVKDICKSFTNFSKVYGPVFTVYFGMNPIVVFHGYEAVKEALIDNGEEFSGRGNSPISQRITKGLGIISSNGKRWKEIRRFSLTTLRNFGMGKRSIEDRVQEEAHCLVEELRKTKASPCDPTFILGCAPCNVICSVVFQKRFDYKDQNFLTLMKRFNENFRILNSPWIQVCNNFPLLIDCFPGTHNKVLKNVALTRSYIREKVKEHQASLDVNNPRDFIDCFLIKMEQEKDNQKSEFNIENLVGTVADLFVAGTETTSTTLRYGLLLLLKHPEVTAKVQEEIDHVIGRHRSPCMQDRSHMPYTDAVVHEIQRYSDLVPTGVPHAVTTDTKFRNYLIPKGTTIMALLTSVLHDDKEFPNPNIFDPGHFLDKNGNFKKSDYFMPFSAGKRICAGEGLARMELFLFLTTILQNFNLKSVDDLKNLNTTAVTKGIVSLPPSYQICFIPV
Test: CYP direct inhibition in human liver microsomes
Recorded endpoint: IC50

Ask: // fetch IC50 for OC[C@H]1O[C@@H](OCCc2ccc(O)cc2)[C@H](O)[C@@H](O)[C@@H]1O [Salidroside] ; system: CYP2C8 (Homo sapiens)
Reply: > 50 µM
